assay remarks: pH change of the media caused by amino acid addition
Assay type: physicochemical
setup conditions: culture media, FIG. 6
property name: pH change caused by amino acid addition

molecule	property name	recorded value
N[C@@H](CS)C(=O)O [cysteine, reference compound]	pH change caused by amino acid addition	significant pH change
CC[C@H](C)[C@H](N)C(=O)O	pH change caused by amino acid addition	trivial impact
N=C(N)NCCC[C@H](N)C(=O)O [arginine, reference compound]	pH change caused by amino acid addition	significant pH change
N[C@@H](Cc1c[nH]cn1)C(=O)O	pH change caused by amino acid addition	trivial impact
